B1: LINE1-full (parent)
chain: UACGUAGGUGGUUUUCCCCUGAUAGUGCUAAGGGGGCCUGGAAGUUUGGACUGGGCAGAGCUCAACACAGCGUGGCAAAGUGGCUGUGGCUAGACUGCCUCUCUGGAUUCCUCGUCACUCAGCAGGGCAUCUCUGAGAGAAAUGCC

- Variants of: B1
- assay-protocol: self-cleavage, relative activity (ratio to wild type); higher = more cleavage; in vitro, sequencing; the parent is a self-cleaving ribozyme
Rule: self-cleavage of 0.9 or more gives 1; anything lower gives -1.

Solved cases (5 shown):
[
  {
    "residue-string": "UACGUAGGUGGUUUUCCCCUGAUAGUGCUAAGGGGGCCUGGAAGUUUGGACUGGGCAGAGCUCAACACAGCGUGGCAAAGUAGCUGUGGCUAGACUGCCUCUCUGGAUUCCUCGUCACUCAGCAGGGCAUCUCUGAGAGAAACGCC",
    "category-label": 1
  },
  {
    "residue-string": "UACGUAGGUGGUUUUCCCCUGAUAGUGCUAAGGGGGCCUGGAAGUUUGGACUGGGCAGAGCGCAACACAGCGUGGCAAAGUGGCUGUGGCUAGACUGCCUCUCCGGAUUCCUCGUCACUCAGCAGGGCAUCUCUGAGAGAAAUGCC",
    "category-label": -1
  },
  {
    "residue-string": "UACGUAGGUGGUUUUCCCCUGAUAGUGCUAAGGGGGCCUGGAAGUUUGGACUGGGCAGAGCUCAACACAGCGUGGCAAAGUGGCUGUGGCUAGACGGCCUCUCAGGAUUCCUCGUCACUCAGCAGGGCAUCUCUGAGAGAAAUGCC",
    "category-label": -1
  },
  {
    "residue-string": "UACGUAGGUGGUUUUCCCCUGAUAGUGCCAAGGGGGCCUGGAAGUUUGGACUGGGCAGAGCUCAACACAGCGUGGCAAAGAGGCUGUGGCUAGACUGCCUCUCUGGAUUCCUCGUCACUCAGCAGGGCAUCUCUGAGAGAAAUGCC",
    "category-label": 1
  },
  {
    "residue-string": "UACGUAGGUGGUUUUCCCCUGAUAGAGCUGAGGGGGCCUGGAAGUUUGGACUGGGCAGAGCUCAACACAGCGUGGCAAAGUGGCUGUGGCUAGACUGCCUCUCUGGAUUCCUCGUCACUCAGCAGGGCAUCUCUGAGAGAAAUGCC",
    "category-label": -1
  }
]

Req: Test whether the variant `UACGUAUGUGGUUUUCCCCUGAUAGUGCUAAGGGGGCCUGGAAGCUUGGACUGGGCAGAGCUCAACACAGCGUGGCAAAGUGGCUGUGGCUAGACUGCCUCUCUGGAUUCCUCGUCACUCAGCAGGGCAUCUCUGAGAGAAAUGCC` records self-cleavage of 0.9 or higher.
Resp: -1

Req: Test whether the variant `UACGUAGGUGGUUUUCCCCAGAUAGUGCUAAGGGGGCCUGGAAGUUUGGACUGGGCAGAGCUCAACACAGCGUGGCAAAGUGGCUGUGGCUAGACUGCCUCUCUGGAUUCCUCGACACUCAGCAGGGCAUCUCUGAGAGAAAUGCC` records self-cleavage of 0.9 or higher.
Resp: 1

Req: Test whether the variant `UACGUAGGUGGUUUUCCCCUGAUAGUGCUAAGGGGGCCUGGAAGUUUGGACCGGGCAGAGCUCAACACAGCGUGGCAAAGUGGCUGUGGCUAGACUGCCUCACUGGAUUCCUCGUCACUCAGCAGGGCAUCUCUGAGAGAAAUGCC` records self-cleavage of 0.9 or higher.
Resp: -1

Req: Test whether the variant `UACGUAGGUGGUUUUCCCCUGAUAGUGCUAAGGGGGCCUGGAAGUUUGGACUGGGCAGAGCUCAACACAGCGUGGCAAAGUGGCUGUGGCUUGACUGCCUCUCUGGAUUCCUCGUCACUCAGCAGGGCAGCUCUGAGAGAAAUGCC` records self-cleavage of 0.9 or higher.
Resp: 1

Req: Test whether the variant `UACGUAGGUGGUUUUCCCCUGAUAGUGCUAAGGGGGCCUGGAAGUUUGGACUGGGCAGAGCUCAACACAGCGUGGCAAAGUGGCUGUGGCUAGACUGCCUCUCUGGAUUCCCCGUCACUCAGCAGGGCAUCUCAGAGAGAAAUGCC` records self-cleavage of 0.9 or higher.
Resp: -1

From: the RNAGym collection of RNA variant scans (doi:10.7554/elife.90254)
